# Tested on: S. cerevisiae NKY1551 his4x/his4B, sporulating;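 further: active if sensitivity score above 5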
# Experiment notes: HIS4 meiotic recombination assay sensitivity score (z-score vs DMSO controls); higher = stronger inhibition of sporulation/recombination, active = hit call of the paper
Where a name gives a salt, the structure may show the parent alone.
Use True when the recorded HIS4 meiotic recombination assay sensitivity score is no lower than -0.2; use False when it is lower.

| Molecule | Label class |
| --- | --- |
| Nc1ccc2cn[nH]c2c1 [6-Aminoindazole] (stock concentration (mM, diluted 1:100): 10) | False |
| O=C(O)CCc1nc(-c2ccccc2)c(-c2ccccc2)o1 [Oxaprozin] (stock concentration (mM, diluted 1:100): 10) | False |
| CC[N+](C)(CC)CCOC(=O)C(O)(c1ccccc1)C1CCCCC1 (stereo unspecified) [Oxyphenonium bromide] (stock concentration (mM, diluted 1:100): 10) | True |
| CCCCc1oc2ccccc2c1C(=O)c1cc(I)c(OCCN(CC)CC)c(I)c1 [Amiodarone hydrochloride] (stock concentration (mM, diluted 1:100): 9.5) | False |
| CC(C)(C)NC(=O)[C@H]1CC[C@H]2[C@@H]3CC[C@H]4NC(=O)C=C[C@]4(C)[C@H]3CC[C@]12C [Finasteride] (stock concentration (mM, diluted 1:100): 10) | True |
| O=C(c1ccccc1)c1ccc2n1CCC2C(=O)O (stereo unspecified) [Toradol] (stock concentration (mM, diluted 1:100): 6.8) | False |
| COc1ccc(CC2c3cc(OC)c(OC)cc3CC[N+]2(C)CCC(=O)OCCCCCOC(=O)CC[N+]2(C)CCc3cc(OC)c(OC)cc3C2Cc2ccc(OC)c(OC)c2)cc1OC (stereo unspecified) [Atracurium besylate] (stock concentration (mM, diluted 1:100): 10) | True |
| CN1CCC(=C2c3ccccc3CCc3sccc32)CC1 [Pizotyline] (stock concentration (mM, diluted 1:100): 10) | True |
| CCS(=O)(=O)CCn1c([N+](=O)[O-])cnc1C [Tinidazole] (stock concentration (mM, diluted 1:100): 10) | False |
| CN(Cc1cnc2nc(N)nc(N)c2n1)c1ccc(C(=O)N[C@@H](CCC(=O)O)C(=O)O)cc1 [Methotrexate] (stock concentration (mM, diluted 1:100): 14.6) | True |
| COc1cc(N)c(Cl)cc1C(=O)NC1CCN(CCCOc2ccc(F)cc2)CC1OC (stereo unspecified) [Cisapride] (stock concentration (mM, diluted 1:100): 10.5) | False |

The reported numbers originate from the supplement of paper PMC3414501.
